response values, listed per item
Target: Beta-2 adrenergic receptor (Homo sapiens)
Experiment: beta2AR agonists driving receptor internalization, pilot screen, cell-based, FAP fluorogen, flow cytometry, validation set (AID 504459);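 note: agonist-driven loss of surface beta2AR via internalization measured by FAP dye flow cytometry; reference of the scale not given here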
Conditions: Am2.2-beta2AR cells, FAP surface receptor flow cytometry; at 10 µM; stronger effect = higher value
Output spec: scalar in %, unitless text.

Consider the following illustrative entries.
COMPOUND	response (%)
OC(c1ccccc1)(c1ccccc1)C1CCNCC1	6.3
O=C1CCCC2=C1C(c1cccnc1)Nc1ccccc1N2 (centres undefined)	-5.46
Clc1ccc(C2NCCc3[nH]cnc32)cc1 (centres undefined)	-11.3
O=C1CN=C(c2ccccc2F)c2cc(Cl)ccc2N1	-21.4
Cc1cc2c(C(C)C)c(O)c(O)c(C=O)c2c(O)c1-c1c(C)cc2c(C(C)C)c(O)c(O)c(C=O)c2c1O	-1.41
Nc1ccncc1	-11.6
CC(C)C[C@H]1C(=O)N2CCCC2[C@]2(O)O[C@](NC(=O)[C@@H]3C=C4c5cccc6[nH]cc(c56)CC4N(C)C3)(C(C)C)C(=O)N12 (some centres undefined)	-35.9
NCCc1ccc(O)cc1	-14.8
OC1CCCCC1N1CCC(c2ccccc2)CC1 (centres undefined)	-8.3
CN1C[C@H](CNC(=O)OCc2ccccc2)C[C@@H]2c3cccc4c3c(cn4C)C[C@H]21	13.7

Q: Look at this compound and give its reported response. C=CC1CN2CCC1CC2[C@@H](OC(=O)c1ccc(OC)cc1)c1ccnc2ccccc12 (some centres undefined)
Result: 1.66

Q: Also, `COc1ccc(Cc2nccc3cc(OC)c(OC)cc23)cc1OC` please.
Result: 20.1

Q: And for COc1ccc(NC2=NCC(C)S2)cc1 (centres undefined) ?
Result: 5.38

Q: Same question for C[N+]1(C)C2CCC1CC(OC(=O)C(CO)c1ccccc1)C2 (centres undefined) please.
Result: -0.63

====

Test: inhibitors of CD8+ T cell-vesicle binding, pilot screen, LFA-1/ICAM-1 modulator project, MLPCN validation set, flow cytometry (AID 2523);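 note: mean PE anti-B7-1 fluorescence of CD8+ cells relative to row control; 100% = QL9-loaded vesicles with DMSO vehicle in the same plate row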
Settings: 2C mouse CD8+ T cells, at 7 µM, stronger effect = lower value
Hi! Could you tag entries with vesicle binding response below 200% as 1.0, and those at or above as 0.0? Much appreciated.

Q: vesicle binding response strictly < 200% for this molecule? `C=C1CC[C@@]2(O)[C@H]3Cc4ccc(O)c5c4[C@@]2(CCN3CC2CC2)[C@H]1O5`
Result: 0.0

Q: Then what about the molecule `O=Cc1cn(Cc2ccc(F)cc2)c2ccccc12` ?
Result: 1.0

Q: `CC(C)[C@H]1C(=O)N2CCC[C@H]2[C@]2(O)O[C@](NC(=O)[C@@H]3C=C4c5cccc6[nH]cc(c56)C[C@H]4N(C)C3)(C(C)C)C(=O)N12` , same question.
Result: 1.0

Q: Follow-up entry: CN1C2CCC1CC(OC(=O)c1ccc(Cl)cc1)C2 (configuration not stated)
Result: 0.0

Q: Would you mind doing `O=c1[nH]c2ccccc2n1C1CCN(CCCC(c2ccc(F)cc2)c2ccc(F)cc2)CC1` as well?
Result: 1.0

====

Reported values of inhibition for individual entries
Target: Lethal factor (Bacillus anthracis)
Assay: Lethal factor protease inhibitors, Bacillus anthracis, multiplex microsphere cleavage assay, validation set (AID 588461)
Conditions: flow cytometry, at 10 µM, stronger effect = higher value
Entry rule: numbers only, all in %.

Completed entries (count: 2):
COMPOUND	QUANTITY UNIT	inhibition
Clc1ccc2c(c1)C(N1CCNCC1)=Nc1ccccc1O2	%	-6.2
C[N+]1(C)C2CCC1CC(OC(=O)C(CO)c1ccccc1)C2 (stereo unspecified)	%	2.6

Q: Tell me the measured inhibition of CC1CNCCN1S(=O)(=O)c1cccc2cnccc12 (stereo unspecified) , please.
Result: 1.6

Q: Next: CC(C)NC(C)C(=O)c1ccc2ccccc2c1 (stereo unspecified)
Result: 1.1

Q: Follow-up entry: CC(NCCc1ccc(O)cc1)C(O)c1ccc(O)cc1 (stereo unspecified)
Result: -3.1

Q: Could you do the same for `CCCC(=O)O[C@]1(C(=O)CO)CC[C@H]2[C@@H]3CCC4=CC(=O)CC[C@]4(C)[C@H]3[C@@H](O)C[C@@]21C` , please?
Result: -0.6

Q: Follow-up entry: `CN1CCN(CCCN2c3ccccc3Sc3ccc(Cl)cc32)CC1`
Result: -10.3

Q: Please answer likewise for `C=CCc1ccc(OCC(O)COc2ccc(CC=C)cc2OC)c(OC)c1`
Result: -6.2
